- systemTested: full-length human RORγt (GAL4-DBD-RORγt fusion) in HEK293T cells (Homo sapiens (Human), UniProt P51449)
- Sequence (P51449 other isoform, or with tags, fused parts or gaps): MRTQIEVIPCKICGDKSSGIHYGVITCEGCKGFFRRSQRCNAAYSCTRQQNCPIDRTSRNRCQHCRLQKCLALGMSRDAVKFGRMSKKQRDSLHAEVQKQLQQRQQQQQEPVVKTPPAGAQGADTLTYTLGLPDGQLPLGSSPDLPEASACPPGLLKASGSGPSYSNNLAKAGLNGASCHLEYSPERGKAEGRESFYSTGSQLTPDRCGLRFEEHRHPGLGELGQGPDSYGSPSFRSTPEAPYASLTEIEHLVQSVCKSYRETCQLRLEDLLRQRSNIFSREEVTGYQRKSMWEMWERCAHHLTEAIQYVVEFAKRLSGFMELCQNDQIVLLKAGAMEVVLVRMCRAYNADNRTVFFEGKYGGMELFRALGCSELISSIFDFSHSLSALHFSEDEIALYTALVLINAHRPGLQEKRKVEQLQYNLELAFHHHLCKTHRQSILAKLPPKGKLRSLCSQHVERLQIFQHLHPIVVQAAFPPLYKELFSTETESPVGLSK
- experimentSummary: RORγt (full-length human) reporter assay, conditions A or B
- Format: cell-based
- conditionNotes: HEK293T cells; read-out: RORγt (FL) Reporter Assay A or B, IC50
Kindly state pIC50 for each of the entries shown.
Numbers only, as −log10 of the molar value.

Q) Need pIC50 of CCn1nc(C(=O)NC[C@H]2CC[C@H](S(C)(=O)=O)CC2)c(Cl)c1-c1ncc(CC(C)(C)C(F)(F)F)cc1OC(F)F , thanks.
A) 7.24

Q) Need pIC50 of CCn1nc(C(=O)NC[C@]2(O)CC[C@@H](S(C)(=O)=O)CC2)c(C)c1-c1cnc(CCCC(F)(F)F)cc1OC(F)F , thanks.
A) 7.20

Here's the next entry for you.
Q) Need pIC50 of CCn1nc(C(=O)NC[C@H]2CC[C@H](S(C)(=O)=O)CC2)c(C)c1-c1cnc(C[C@H](C)C(F)(F)F)cc1OC(F)F (single isomer, unassigned) , thanks.
A) 7.80
